Test System: T1, EsCas13d, nuclease-dead (Eubacterium siraeum, UniProt B0MS50, R295A;H300A;R849A;H854A)
T1 sequence: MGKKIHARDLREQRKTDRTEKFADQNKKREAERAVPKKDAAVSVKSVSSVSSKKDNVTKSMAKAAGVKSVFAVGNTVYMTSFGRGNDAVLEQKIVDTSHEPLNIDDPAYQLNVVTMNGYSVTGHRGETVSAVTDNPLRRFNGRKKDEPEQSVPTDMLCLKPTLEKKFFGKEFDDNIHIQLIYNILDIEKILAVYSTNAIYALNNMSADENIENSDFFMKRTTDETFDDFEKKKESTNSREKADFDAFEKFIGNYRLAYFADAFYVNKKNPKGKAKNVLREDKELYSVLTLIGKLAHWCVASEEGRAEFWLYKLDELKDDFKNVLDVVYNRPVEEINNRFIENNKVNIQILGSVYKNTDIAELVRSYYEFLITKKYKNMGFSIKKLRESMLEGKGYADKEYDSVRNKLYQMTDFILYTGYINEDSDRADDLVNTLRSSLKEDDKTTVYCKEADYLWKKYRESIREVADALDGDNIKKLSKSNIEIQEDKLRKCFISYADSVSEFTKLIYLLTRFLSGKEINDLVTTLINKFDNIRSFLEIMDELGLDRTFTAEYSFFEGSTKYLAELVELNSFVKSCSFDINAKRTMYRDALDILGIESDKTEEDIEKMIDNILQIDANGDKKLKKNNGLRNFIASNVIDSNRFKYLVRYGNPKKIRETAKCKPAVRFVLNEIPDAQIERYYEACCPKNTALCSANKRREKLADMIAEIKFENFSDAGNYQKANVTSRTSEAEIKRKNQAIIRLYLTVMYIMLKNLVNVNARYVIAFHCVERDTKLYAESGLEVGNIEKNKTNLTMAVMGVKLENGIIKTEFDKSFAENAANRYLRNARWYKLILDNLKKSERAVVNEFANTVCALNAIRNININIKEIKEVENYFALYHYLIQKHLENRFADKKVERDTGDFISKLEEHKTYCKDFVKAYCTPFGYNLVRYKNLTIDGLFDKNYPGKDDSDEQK
Protocol Description: crRNA (strand 1, pre-loaded); Mg2+; 40 mM Tris-HCl pH 7.5, 150 mM NaCl, 6 mM MgCl2, 1 mM DTT, 0.1% Tween-20, 0.2 mg/ml BSA; 25 C; 10 min per concentration, then washed
Run Conditions: tags: His6-TwinStrep-SUMO cleaved; N-terminal SNAP kept (SNAP-Surface 488); label: 3' end held by stalled T7 RNA polymerase
Test Readout: Kd (nM)
Return type: number; implicit unit nM.

Some solved entries appear below for comparison.
binder="target 1 insG 3' of 22,insU 3' of 6 (mixed) RNA 1: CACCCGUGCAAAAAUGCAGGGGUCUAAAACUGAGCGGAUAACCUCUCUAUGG RNA 2: GGGAAUGGAUCCACAUCUACGAAUUCGUACGCAUAGAGAGGUUAUCCUGCUCACCGAGAUCGGAAGAGCACACGU" value_measured=49
binder="target 3 C1G,G4A (mixed) RNA 1: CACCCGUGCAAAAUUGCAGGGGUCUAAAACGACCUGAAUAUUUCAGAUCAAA RNA 2: GGGAAUGGAUCCACAUCUACGAAUUCGUUUUUGAUCUGAAAUAUUCAAGUGUGCAGAUCGGAAGAGCACACGU" value_measured=15.9
binder="target 1 C2U,C21A (mixed) RNA 1: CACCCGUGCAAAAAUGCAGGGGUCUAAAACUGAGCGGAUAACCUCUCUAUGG RNA 2: GGGAAUGGAUCCACAUCUACGAAUUCGUACAAUAGAGAGGUUAUCCGCUUACCGAGAUCGGAAGAGCACACGU" value_measured=28.1
binder="target 2 MT 5'PFS GUU 3'PFS UCU (mixed) RNA 1: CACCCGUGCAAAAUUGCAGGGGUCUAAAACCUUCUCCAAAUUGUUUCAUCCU RNA 2: GGGAAUGGAUCCACAUCUACGAAUUCGUUAGGAUGAAACAAUUUGGAGAAGUCUAGAUCGGAAGAGCACACGU" value_measured=23.9
binder="target 3 insC 3' of 13,insU 3' of 5 (mixed) RNA 1: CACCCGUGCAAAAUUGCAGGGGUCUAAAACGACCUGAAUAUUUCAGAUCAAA RNA 2: GGGAAUGGAUCCACAUCUACGAAUUCGUUUUUGAUCUGACAAUAUUCAUGGUCUGCAGAUCGGAAGAGCACACGU" value_measured=100

Query: Any idea what its Kd is? The binder is target 3 insA 3' of 2,insG 3' of 1 (mixed) RNA 1: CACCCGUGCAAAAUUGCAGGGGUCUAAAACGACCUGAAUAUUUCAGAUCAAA RNA 2: GGGAAUGGAUCCACAUCUACGAAUUCGUUUUUGAUCUGAAAUAUUCAGGUACGUGCAGAUCGGAAGAGCACACGU
Reply: 36
